For each entry below, report its pEC50 value.
molecular target: UniProtKB P25021; test: Agonist activity at human histamine H2 receptor expressed in HEK293T cells co-expressing ELucC by beta arrestin2 recruitment assay; format: functional, cell-based
Sequence (P25021 whole entry): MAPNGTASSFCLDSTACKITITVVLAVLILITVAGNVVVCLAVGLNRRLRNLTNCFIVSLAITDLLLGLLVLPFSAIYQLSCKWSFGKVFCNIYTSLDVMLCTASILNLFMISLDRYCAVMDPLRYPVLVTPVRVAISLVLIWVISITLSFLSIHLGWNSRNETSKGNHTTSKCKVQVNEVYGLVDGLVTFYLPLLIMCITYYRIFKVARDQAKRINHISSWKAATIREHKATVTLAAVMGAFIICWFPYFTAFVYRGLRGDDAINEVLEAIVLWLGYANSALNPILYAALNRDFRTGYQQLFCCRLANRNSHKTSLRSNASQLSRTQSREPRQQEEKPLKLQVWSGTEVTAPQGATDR
Note on units: pEC50 is unitless, being -log10 of a concentration expressed in mol/L.

Record Cc1nc(N)sc1CCCN/C(N)=N/C(=O)NCC(C)C1CCCCC1 (stereo not given) ; system UniProtKB P25021; pEC50 = 6.65

Record for Cc1nc(N)sc1CCCN/C(N)=N/C(=O)NCC(c1ccccc1)C(C)C (stereo not given) under target or system UniProtKB P25021: pEC50 reported as 6.80

UniProtKB P25021 data for Cc1nc(N)sc1CCCN/C(N)=N/C(=O)Nc1ccccc1 ; its pEC50: 5.47

The value of pEC50 recorded for CCCNC(=O)/N=C(\N)NCCCc1sc(N)nc1C when tested on UniProtKB P25021 reads 6.77

Value sought: pEC50, system UniProtKB P25021, item CCCCCNC(=O)/N=C(\N)NCCCc1sc(N)nc1C . Result: 6.75

Case Cc1nc(N)sc1CCCN/C(N)=N/C(=O)NCCc1ccccc1 , UniProtKB P25021, pEC50 recorded as 6.78

Observed pEC50 on UniProtKB P25021, entry N/C(=N\C(=O)NCc1ccccc1)NC1CCc2nc(N)sc2C1 (stereo not given) , equals 5.36

Cc1nc(N)sc1CCCN/C(N)=N/C(=O)NC(C)c1ccco1 (stereo not given) on UniProtKB P25021 gives pEC50 = 6.63

Given the molecule Cc1nc(N)sc1CCCN/C(N)=N/C(=O)NCC(C)CCc1ccccc1 (stereo not given) and test system UniProtKB P25021, the measured pEC50 is 6.45

Field pEC50 (system: UniProtKB P25021) for entry CCCN[C@@H]1CCc2nc(N)sc2C1 [DEXPRAMIPEXOLE] = 4.40
